Tested on: A549 NSCLC
Assay: NCI tumour cell line growth inhibition, 48 h
Experimental Endpoint: TGI

Consider the worked cases shown below.
- Clc1ccc(Cl)c(NNc2cc(Cl)ccc2Cl)c1: > 10 µM
- O=C(CCc1ccc(O)cc1)NCCc1cccc(O)c1: > 50 µM
- COc1ccc(-c2nnc(-c3nsc4ccccc34)o2)cc1: > 100 µM
- COc1ccc(/C=C2/SC(c3ccccc3)N(NC(=O)CCCCCCCCC(=O)NN3C(=O)/C(=C\c4ccc(OC)c(OC)c4)SC3c3ccccc3)C2=O)cc1OC (stereo not given): > 100 µM
- COCn1cnc2c(=O)n(-c3ccc(C)cc3)c(=S)n(-c3ccc(C)cc3)c21: > 100 µM
- CCOC(=O)C(CS)NC(=O)CCCCCCCC(=O)O (stereo not given): > 100 µM

Param item = CCCCc1[nH]ccc2c(C)c3nc4ccccc4c3cc12 ; retrieve measured TGI.
14.1 µM

Param item = CCOC(=O)Nn1cnnc1C ; retrieve measured TGI.
> 100 µM

Param item = C=C1CC(OC)(C(OC)C(=O)N(C)[C@H]2OCO[C@H]3C2O[C@H](C[C@@H](COC)OC)C(C)(C)C3OC)O[C@H](C)[C@@H]1C (stereo not given in full) ; retrieve measured TGI.
> 91.7 µM

Param item = NC(C(=O)O)c1cc(=O)[nH]o1 (stereo not given) ; retrieve measured TGI.
> 100 µM
